- Test system: compound 48/80-induced lethality
- Test Summary: Protection of rats from compound 48/80-induced lethality
- Format: in vivo, rat (male, inbred Wistar strain)
- Run Conditions: Rattus norvegicus, 4 h, read-out: Compound 48/80 lethality test in rats-ED50
Below, each entry is listed with its recorded ED50.
Endpoint Label: ED50 (mg/kg)

[
  {
    "Cpd Smiles": "c1coc(Cn2c(NC3CCN(CCNc4nc5cnccc5[nH]4)CC3)nc3cccnc32)c1",
    "Number": 0.04
  },
  {
    "Cpd Smiles": "O=c1[nH]c2ccccc2c(=O)n1CCCCN1CCC(Nc2nc3ccccc3n2Cc2ccco2)CC1",
    "Number": 0.08
  },
  {
    "Cpd Smiles": "Cc1nc2ccccn2c(=O)c1CCN1CCC(Nc2nc3cccnc3n2Cc2ccc(F)cc2)CC1.Cl.Cl",
    "Number": 0.16
  },
  {
    "Cpd Smiles": "OCCn1cnc2c(NCCN3CCC(Nc4nc5ccccc5n4Cc4ccc(F)cc4)CC3)ncnc21",
    "Number": 0.08
  },
  {
    "Cpd Smiles": "Fc1ccc(Cn2c(NC3CCN(CCn4c(=S)[nH]c5cncnc54)CC3)nc3ccccc32)cc1",
    "Number": 0.31
  },
  {
    "Cpd Smiles": "Cn1c(=O)n(CCN2CCC(Nc3nc4cccnc4n3Cc3ccc(F)cc3)CC2)c(=O)c2ccccc21",
    "Number": 0.16
  },
  {
    "Cpd Smiles": "Cc1cc(C)n2c(=O)c(CCN3CCC(Nc4nc5cccnc5n4Cc4ccco4)CC3)c(C)nc2c1",
    "Number": 0.16
  },
  {
    "Cpd Smiles": "Fc1ccc(Cn2c(NC3CCN(Cc4cn5ccccc5n4)CC3)nc3ccccc32)cc1",
    "Number": 0.16
  },
  {
    "Cpd Smiles": "c1csc(Cn2c(NC3CCN(CCNc4nc5cnccc5[nH]4)CC3)nc3ccccc32)c1",
    "Number": 0.02
  },
  {
    "Cpd Smiles": "Cc1nc2n(c(=O)c1CCN1CCC(Nc3nc4ccccc4n3Cc3ccc(F)cc3)CC1)CCCC2",
    "Number": 0.08
  },
  {
    "Cpd Smiles": "Fc1ccc(Cn2c(NC3CCN(CCNc4nc5cnccc5[nH]4)CC3)nc3ncccc32)cc1",
    "Number": 0.02
  },
  {
    "Cpd Smiles": "Cn1c(=O)c2c(ncn2CCN2CCC(Nc3nc4cccnc4n3Cc3ccc(F)cc3)CC2)n(C)c1=O",
    "Number": 0.16
  },
  {
    "Cpd Smiles": "Cn1cnc2c1c(=O)n(CCN1CCC(Nc3nc4ccccc4n3Cc3ccc(F)cc3)CC1)c(=O)n2C",
    "Number": 0.16
  },
  {
    "Cpd Smiles": "Cc1nc2n(c(=O)c1CCN1CCC(Nc3nc4ccccc4n3Cc3ccc(F)cc3)CC1)CCCS2",
    "Number": 0.16
  },
  {
    "Cpd Smiles": "O=c1[nH]c2ccccc2c(=O)n1CCN1CCC(Nc2nc3cccnc3n2Cc2ccco2)CC1",
    "Number": 0.08
  },
  {
    "Cpd Smiles": "Cc1nc2cccc(C)n2c(=O)c1CCN1CCC(Nc2nc3cccnc3n2Cc2ccco2)CC1",
    "Number": 0.01
  },
  {
    "Cpd Smiles": "Cc1nc2n(c(=O)c1CCN1CCC(Nc3nc4ccccc4n3Cc3ccc(Cl)cc3)CC1)CCCC2",
    "Number": 0.16
  },
  {
    "Cpd Smiles": "Fc1ccc(Cn2c(NC3CCN(CCCNc4nc5cnccc5[nH]4)CC3)nc3ccccc32)cc1",
    "Number": 0.02
  },
  {
    "Cpd Smiles": "Cn1c(=S)n(CCN2CCC(Nc3nc4ccccc4n3Cc3ccco3)CC2)c(=O)c2ccccc21",
    "Number": 0.08
  },
  {
    "Cpd Smiles": "O=c1[nH]c2ccccc2c(=O)n1CCN1CCC(Nc2nc3ccccc3n2Cc2ccco2)CC1",
    "Number": 0.08
  },
  {
    "Cpd Smiles": "Cc1nc2ccc(Br)cn2c(=O)c1CCN1CCC(Nc2nc3cccnc3n2Cc2ccco2)CC1",
    "Number": 0.08
  },
  {
    "Cpd Smiles": "Cc1nc2n(c(=O)c1CCN1CCC(Nc3nc4ccccc4n3Cc3ccc(F)cc3)CC1)CCS2",
    "Number": 0.31
  },
  {
    "Cpd Smiles": "Cn1cnc2c(NCCN3CCC(Nc4nc5ccccc5n4Cc4ccccc4)CC3)ncnc21",
    "Number": 0.16
  },
  {
    "Cpd Smiles": "Cc1nc2n(c(=O)c1CCN1CCC(Nc3nc4cccnc4n3Cc3ccc(F)cc3)CC1)CCCC2",
    "Number": 0.04
  },
  {
    "Cpd Smiles": "O=c1[nH]c2ccccc2c(=O)n1CCCN1CCC(Nc2nc3cccnc3n2Cc2ccco2)CC1",
    "Number": 0.04
  },
  {
    "Cpd Smiles": "Cc1nc2nc(NCCN3CCC(Nc4nc5ccccc5n4Cc4ccc(F)cc4)CC3)ccc2[nH]1",
    "Number": 0.04
  },
  {
    "Cpd Smiles": "Cc1nc2n(c(=O)c1CCN1CCC(Nc3nc4ccccc4n3Cc3cscn3)CC1)CCCC2",
    "Number": 0.04
  },
  {
    "Cpd Smiles": "Fc1ccc(Cn2c(NC3CCN(CCNc4nc5cccnc5s4)CC3)nc3ccccc32)cc1",
    "Number": 0.16
  },
  {
    "Cpd Smiles": "Cn1c(=O)n(CCN2CCC(Nc3nc4cccnc4n3Cc3ccco3)CC2)c(=O)c2ccccc21",
    "Number": 0.02
  },
  {
    "Cpd Smiles": "Cc1nc2ccccn2c(=O)c1CCN1CCC(Nc2nc3ccccc3n2Cc2ccco2)CC1",
    "Number": 0.16
  },
  {
    "Cpd Smiles": "Cc1ccn2c(=O)c(CCN3CCC(Nc4nc5cccnc5n4Cc4ccco4)CC3)c(C)nc2c1",
    "Number": 0.04
  },
  {
    "Cpd Smiles": "Fc1ccc(Cn2c(NC3CCN(CCOc4nc5cccnc5s4)CC3)nc3ccccc32)cc1",
    "Number": 0.16
  }
]

---

- Tested on: compound 48/80-induced lethality
- Test Summary: Protection of rats from compound 48/80-induced lethality
- Assay type: in vivo, rat (male, inbred Wistar strain)
- Run Conditions: Rattus norvegicus, 4 h, read-out: Compound 48/80 lethality test in rats-ED50

[
  {
    "Molecule": "Cc1nc2n(c(=O)c1CCN1CCC(Nc3nc4cccnc4n3Cc3ccco3)CC1)C(C)CC(C)C2 (stereo not shown) [Compound 63]",
    "ED50 [mg/kg]": 0.08
  },
  {
    "Molecule": "Cc1nc2n(c(=O)c1CCN1CCC(Nc3nc4cccnc4n3Cc3ccc(F)cc3)CC1)CCCS2 [Compound 16]",
    "ED50 [mg/kg]": 0.16
  },
  {
    "Molecule": "Cc1nc2scc(C)n2c(=O)c1CCN1CCC(Nc2nc3ccccc3n2Cc2ccc(F)cc2)CC1 [Compound 1]",
    "ED50 [mg/kg]": 0.31
  },
  {
    "Molecule": "Cl.Cl.Cl.Fc1ccc(Cn2c(NC3CCN(Cc4cn5c(n4)CNCC5)CC3)nc3ccccc32)cc1 [Compound 152]",
    "ED50 [mg/kg]": 0.08
  },
  {
    "Molecule": "Cn1cnc2c1c(=O)n(CCN1CCC(Nc3nc4ccccc4n3Cc3ccco3)CC1)c(=O)n2C [Compound 11]",
    "ED50 [mg/kg]": 0.08
  },
  {
    "Molecule": "Cc1nc2ccccn2c(=O)c1CCN1CCC(Nc2nc3cccnc3n2Cc2ccco2)CC1 [Compound 6]",
    "ED50 [mg/kg]": 0.08
  },
  {
    "Molecule": "Cn1c(=O)n(CCN2CCC(Nc3nc4ccccc4n3Cc3ccco3)CC2)c(=O)c2ccccc21 [Compound 34]",
    "ED50 [mg/kg]": 0.08
  },
  {
    "Molecule": "Cc1nc2ccccn2c(=O)c1CCN1CCC(Nc2nc3ccncc3n2Cc2ccc(F)cc2)CC1 [Compound 79]",
    "ED50 [mg/kg]": 0.16
  },
  {
    "Molecule": "Cc1nc2c(NCCN3CCC(Nc4nc5ccccc5n4Cc4ccc(F)cc4)CC3)ncnc2n1C [Compound 96]",
    "ED50 [mg/kg]": 0.16
  },
  {
    "Molecule": "Fc1ccc(Cn2c(NC3CCN(Cc4cn5cccnc5n4)CC3)nc3ccccc32)cc1 [Compound 40]",
    "ED50 [mg/kg]": 0.16
  },
  {
    "Molecule": "Cc1nc2sccn2c(=O)c1CCN1CCC(Nc2nc3ccccc3n2Cc2ccc(F)cc2)CC1 [Compound 27]",
    "ED50 [mg/kg]": 0.08
  },
  {
    "Molecule": "Fc1ccc(Cn2c(NC3CCN(CCCCNc4nc5cnccc5[nH]4)CC3)nc3ccccc32)cc1 [Compound 121]",
    "ED50 [mg/kg]": 0.02
  },
  {
    "Molecule": "Cc1nc2n(c(=O)c1CCN1CCC(Nc3nc4cccnc4n3Cc3ccco3)CC1)CCS2 [Compound 48]",
    "ED50 [mg/kg]": 0.08
  },
  {
    "Molecule": "c1coc(Cn2c(NC3CCN(CCNc4nc5cnccc5[nH]4)CC3)nc3ccccc32)c1 [Compound 111]",
    "ED50 [mg/kg]": 0.02
  },
  {
    "Molecule": "Cn1c(=O)c2c(ncn2CCN2CCC(Nc3nc4ccccc4n3Cc3ccco3)CC2)n(C)c1=O [Compound 39]",
    "ED50 [mg/kg]": 0.16
  },
  {
    "Molecule": "Cc1nc2n(c(=O)c1CCN1CCC(Nc3nc4ccccc4n3Cc3cccs3)CC1)CCCC2 [Compound 59]",
    "ED50 [mg/kg]": 0.08
  }
]
